# Test system: 439559-082-T-J2-PDC spheroid viability
# assay: Anticancer human tumor 439559-082-T-J2-PDC patient-derived colon adenocarcinoma cell line growth inhibition [POLQ]
# details: second compound 0.1 µM; first compound 0.0316 µM; stronger effect = lower value; spheroids with HUVEC and MSC
# Description: Multicellular complex tumor spheroid response to Polymerase (POL) inhibitors (novobiocin, ART-558, RP6685) in combination with a variety of drugs and investigational agents in selected tumor cell lines The POL inhibitors (novobiocin, ART-558, and RP6685) were evaluated both individually and in combination with standard of care and investigational anticancer small molecules within a complex spheroid model of solid tumors. . […]
The label is Met for viability, T/C below 90% and Not met for viability, T/C equal to or exceeding 90%.

Exam item: is_below(viability, T/C, 90%) for Cn1ncnc1[C@H]1c2n[nH]c(=O)c3cc(F)cc(c23)N[C@@H]1c1ccc(F)cc1 + Cc1cccc(N(C)C(=O)C2C(O)CCN2c2nc(C)cc(C(F)(F)F)c2C#N)c1 ?
Marked response: Not met

Exam item: Strictly below 90%: is that where viability, T/C of CC1COCCN1c1cc(C2(O)CC3CCC(C2)O3)c2cnn(-c3ccn[nH]3)c2n1 (stereo not given) + Cc1cccc(N(C)C(=O)C2C(O)CCN2c2nc(C)cc(C(F)(F)F)c2C#N)c1 sits?
Marked response: Not met

Exam item: Identify whether the molecule CCc1cc2c(N3CCc4c(cc(Cn5ccnc5)cc4-c4cn(C)nc4C(F)(F)F)C3=O)ccnc2c(OC)n1 + COC1C(OC(N)=O)C(O)C(Oc2ccc3c(O)c(NC(=O)c4ccc(O)c(CC=C(C)C)c4)c(=O)oc3c2C)OC1(C)C records viability, T/C below 90%.
Marked response: Not met

Exam item: API: query returns whether the molecule falls strictly under 90% in viability, T/C. Query: C=CCn1c(=O)c2cnc(Nc3ccc(N4CCN(C)CC4)cc3)nc2n1-c1cccc(C(C)(C)O)n1 + COC1C(OC(N)=O)C(O)C(Oc2ccc3c(O)c(NC(=O)c4ccc(O)c(CC=C(C)C)c4)c(=O)oc3c2C)OC1(C)C
Marked response: Not met

Exam item: Is viability, T/C strictly under 90% for the entry COc1cc(C2c3cc4c(cc3C(OC3OC5COC(C)OC5C(O)C3O)C3COC(=O)C23)OCO4)cc(OC)c1O (stereo not given) + Nc1ccc(C#CCN(C(=O)Cc2ncc(C(F)(F)F)cc2C(F)(F)F)c2ccc(F)cc2)nn1 ?
Marked response: Met

* * *

# Tested on: 439559-082-T-J2-PDC spheroid viability
# assay: Anticancer human tumor 439559-082-T-J2-PDC cell line growth inhibition [POLQ];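 note: spheroids exposed to compounds for seven days before readout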
# details: compound alone; run of 12/05/2023; spheroids with HUVEC and MSC
value.type: IC50

# IC50 (compound: Nc1ccc(C#CCN(C(=O)Cc2ncc(C(F)(F)F)cc2C(F)(F)F)c2ccc(F)cc2)nn1 ) is > 10 µM

Recorded result, Cc1cccc(N(C)C(=O)C2C(O)CCN2c2nc(C)cc(C(F)(F)F)c2C#N)c1 (configuration not stated) , IC50: > 10 µM

* * *

# System: 439559-082-T-J2-PDC spheroid viability
# assay: Anticancer human tumor 439559-082-T-J2-PDC cell line growth inhibition [POLQ];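 note: spheroids exposed to compounds for seven days before readout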;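 for viability, T/C: 100% = DMSO vehicle control viability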
# details: second compound 0.0316 µM; first compound 0.00316 µM; stronger effect = lower value; spheroids with HUVEC and MSC
I'd appreciate it if you could supply viability, T/C values for the items below.
Provide the reading as a plain figure in %.

In plain terms, C=CCn1c(=O)c2cnc(Nc3ccc(N4CCN(C)CC4)cc3)nc2n1-c1cccc(C(C)(C)O)n1 + Cc1cccc(N(C)C(=O)C2C(O)CCN2c2nc(C)cc(C(F)(F)F)c2C#N)c1 has a documented viability, T/C of 104

Item: CC[C@@]1(O)C(=O)OCc2c1cc1n(c2=O)Cc2cc3c(CN(C)C)c(O)ccc3nc2-1 + Nc1ccc(C#CCN(C(=O)Cc2ncc(C(F)(F)F)cc2C(F)(F)F)c2ccc(F)cc2)nn1 | viability, T/C: 81.4

The molecule listed as CC[C@@]1(O)C(=O)OCc2c1cc1n(c2=O)Cc2cc3c(CN(C)C)c(O)ccc3nc2-1 + Cc1cccc(N(C)C(=O)C2C(O)CCN2c2nc(C)cc(C(F)(F)F)c2C#N)c1 shows viability, T/C equal to 96
